Assay: self-splicing fitness, log relative to wild type (ln ratio); higher = more splicing; Tetrahymena group I intron in knt gene, E. coli kanamycin selection, DiMSum; sequences stand for … in CUCUCU…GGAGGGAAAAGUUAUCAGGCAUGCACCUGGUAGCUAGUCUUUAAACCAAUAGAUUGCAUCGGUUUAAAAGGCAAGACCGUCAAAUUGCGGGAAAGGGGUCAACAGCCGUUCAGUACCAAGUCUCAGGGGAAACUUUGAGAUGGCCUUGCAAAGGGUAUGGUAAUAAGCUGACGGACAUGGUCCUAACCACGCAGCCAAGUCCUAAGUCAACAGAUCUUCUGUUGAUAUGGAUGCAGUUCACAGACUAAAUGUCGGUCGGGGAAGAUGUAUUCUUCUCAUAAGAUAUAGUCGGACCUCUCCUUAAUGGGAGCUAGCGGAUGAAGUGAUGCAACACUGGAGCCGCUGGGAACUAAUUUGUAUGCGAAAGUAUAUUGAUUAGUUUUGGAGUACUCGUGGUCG;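 also: selection with 25 µg/mL kanamycin versus none on LB agar overnight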
Settings: 37 °C
Values of self-splicing fitness (ln) greater than or equal to -2 map to true; values below map to false.

INSERT INTO measurements (chain, assigned_label) VALUES
  ('AGUAAGCAAUAUUACGUUAU', 'false'),
  ('AUGCAGCAAUAUUACGUGAG', 'true'),
  ('UAGUAGCAAUAUUACGCCGA', 'true'),
  ('ACCAAGCAAUAUUACGAGAA', 'false'),
  ('GUUGAGCAAUAUUACGCGAU', 'false'),
  ('GCCUAGCAAUAUUACGGGGA', 'true'),
  ('GCGUAGCAAUAUUACGCUUU', 'false'),
  ('UUAUAGCAAUAUUACGCGUG', 'true'),
  ('GCUUAGCAAUAUUACGCAUG', 'true'),
  ('AUCUAGCAAUAUUACGAGAU', 'false'),
  ('GAGCAGCAAUAUUACGCUGG', 'true'),
  ('AGGUAGCAAUAUUACGGCUA', 'true'),
  ('UCACAGCAAUAUUACGAUGU', 'true'),
  ('AGCAAGCAAUAUUACGAGAA', 'false'),
  ('CCGUAGCAAUAUUACGCACC', 'false'),
  ('CUAAAGCAAUAUUACGGGCC', 'true'),
  ('UCUGAGCAAUAUUACGACUA', 'true'),
  ('GUGCAGCAAUAUUACGACAU', 'true'),
  ('UCUCAGCAAUAUUACGCUAA', 'false'),
  ('GCCUAGCAAUAUUACGCCGU', 'true'),
  ('UGUAAGCAAUAUUACGCUCG', 'true'),
  ('GCAGAGCAAUAUUACGCGAC', 'false'),
  ('AUUUAGCAAUAUUACGCAUG', 'true'),
  ('UUGUAGCAAUAUUACGAUAA', 'true'),
  ('GCCCAGCAAUAUUACGUUCG', 'false'),
  ('CACGAGCAAUAUUACGCACU', 'true'),
  ('GUUAAGCAAUAUUACGGACG', 'true'),
  ('AGCCAGCAAUAUUACGUAAG', 'true'),
  ('AAUCAGCAAUAUUACGCGGA', 'true'),
  ('AUAAAGCAAUAUUACGCGAG', 'true'),
  ('GGUAAGCAAUAUUACGAAUA', 'true'),
  ('GACCAGCAAUAUUACGAUAA', 'true'),
  ('CAUAAGCAAUAUUACGAGAU', 'false'),
  ('UAAUAGCAAUAUUACGCUUU', 'true'),
  ('AAAGAGCAAUAUUACGAUUC', 'true'),
  ('AAAGAGCAAUAUUACGAUUG', 'false'),
  ('GAAAAGCAAUAUUACGAGGA', 'true'),
  ('ACUGAGCAAUAUUACGGCCA', 'false'),
  ('UGUUAGCAAUAUUACGGAUU', 'true'),
  ('CCUCAGCAAUAUUACGAUCG', 'true'),
  ('GGGCAGCAAUAUUACGAACC', 'true'),
  ('GCCCAGCAAUAUUACGGUAC', 'true'),
  ('GUUCAGCAAUAUUACGUGUG', 'true'),
  ('AACGAGCAAUAUUACGGGAC', 'false'),
  ('CUGUAGCAAUAUUACGGUCG', 'true'),
  ('CGAAAGCAAUAUUACGUCAC', 'false'),
  ('GUAUAGCAAUAUUACGAUUA', 'true'),
  ('AUAUAGCAAUAUUACGUUCU', 'true'),
  ('UGAUAGCAAUAUUACGGUCG', 'true'),
  ('UAGGAGCAAUAUUACGUUGA', 'true'),
  ('AGCGAGCAAUAUUACGGGCU', 'true'),
  ('AACUAGCAAUAUUACGACGG', 'true'),
  ('CAUUAGCAAUAUUACGGGUC', 'true'),
  ('GGAAAGCAAUAUUACGUACG', 'true'),
  ('CUUGAGCAAUAUUACGGCGC', 'true'),
  ('UUGAAGCAAUAUUACGCGUU', 'true'),
  ('AGAAAGCAAUAUUACGAGUC', 'true'),
  ('AAGCAGCAAUAUUACGAGAG', 'false'),
  ('GAACAGCAAUAUUACGAGAA', 'true'),
  ('UUGCAGCAAUAUUACGGCGU', 'true'),
  ('UUAGAGCAAUAUUACGGUGG', 'true'),
  ('AGCCAGCAAUAUUACGUGGU', 'false'),
  ('UUACAGCAAUAUUACGACCG', 'true'),
  ('UUAUAGCAAUAUUACGUUCG', 'true'),
  ('AAAUAGCAAUAUUACGAGAA', 'true'),
  ('UUUCAGCAAUAUUACGAAAG', 'true');
